# measurementTarget: Lp-PLA2 (Homo sapiens)
# Construct: aliquoted and thawed 40 μL of pooled human plasma was previously added; from tissue; host or cells: pooled human plasma
# Sequence (Q13093 22-441): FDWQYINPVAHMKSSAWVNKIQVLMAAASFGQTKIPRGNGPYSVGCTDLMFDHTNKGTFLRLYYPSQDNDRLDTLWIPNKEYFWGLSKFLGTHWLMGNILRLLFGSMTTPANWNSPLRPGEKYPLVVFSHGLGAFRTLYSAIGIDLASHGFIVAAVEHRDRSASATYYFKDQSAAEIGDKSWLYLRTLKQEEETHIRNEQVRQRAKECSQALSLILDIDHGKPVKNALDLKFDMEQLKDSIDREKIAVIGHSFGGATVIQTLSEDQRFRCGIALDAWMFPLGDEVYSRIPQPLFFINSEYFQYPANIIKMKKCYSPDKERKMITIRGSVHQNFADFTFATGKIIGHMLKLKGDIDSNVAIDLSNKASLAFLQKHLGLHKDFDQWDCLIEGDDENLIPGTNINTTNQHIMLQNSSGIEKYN
# testDetails: Lipoprotein-associated phospholipase A2 (Lp-PLA2) human plasma assay (Thio-PAF assay)
# Type: biochemical
# measurementSetup: Lp-PLA2 human plasma assay (Thio-PAF), pooled human plasma, 30-min pre-incubation at room temperature
measuredAttribute: pIC50
Keep in mind that pIC50 stands for -log10 of concentration in molar terms.

Known pIC50 results, listed for orientation:
compound=O=c1nc(OCc2cc(F)c(Oc3cnc(C(F)(F)F)nc3)c(F)c2)cc2n1CC13CC(CN21)C3 measurementtarget="Lp-PLA2 (Homo sapiens)" resultvalue=7.86
compound="CC12CCCN1c1cc(OCCc3ccc(Oc4ccc(Cl)c(C(F)(F)F)c4)cc3)nc(=O)n1C2 (stereo not drawn)" measurementtarget="Lp-PLA2 (Homo sapiens)" resultvalue=8.47
compound="CC12CCCN1c1cc(OCc3ccc(F)c(F)c3)nc(=O)n1C2 (stereo not drawn)" measurementtarget="Lp-PLA2 (Homo sapiens)" resultvalue=7.89
compound=N#Cc1cc(COc2cc3n(c(=O)n2)C[C@]24CO[C@H](CN32)C4)ccc1Oc1cccc(C(F)(F)F)c1 measurementtarget="Lp-PLA2 (Homo sapiens)" resultvalue=8.41
compound=N#Cc1cc(COc2cc3n(c(=O)n2)C[C@]24CO[C@H](CN32)C4)ccc1Oc1ccnc(C(F)(F)F)c1 measurementtarget="Lp-PLA2 (Homo sapiens)" resultvalue=8.52
compound=O=c1nc(OCc2cc(F)c(Oc3ccc(C(F)(F)F)nc3)c(F)c2)cc2n1C[C@]13CO[C@H](CN21)C3 measurementtarget="Lp-PLA2 (Homo sapiens)" resultvalue=8.19
compound=O=c1nc(OCc2cc(F)c(F)c(F)c2)cc2n1C[C@@]13CO[C@@H](CN21)C3 measurementtarget="Lp-PLA2 (Homo sapiens)" resultvalue=7.41
compound=COc1c(OCCc2ccc(Oc3ccc(Cl)c(C(F)(F)F)c3)c(F)c2)nc(=O)n2c1N1CC3CC1(C3)C2 measurementtarget="Lp-PLA2 (Homo sapiens)" resultvalue=8.11

*Q* Request - read-out pIC50 | tested on Lp-PLA2 (Homo sapiens) | compound O=c1nc(OCc2ccc(Oc3ccnc(C(F)(F)F)c3)c(F)c2)cc2n1CC13CCC(CC1)N23 [Example 118]
*A* 8.22
